Parameter composite z-score: see the listing below.
- protocol.description: probe aInhba binding on compound microarray – biochemical, small-molecule microarray, 635/667 nm fluorescence, primary screen (AID 1148);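 further: score merges 667nm spot fluorescence with signal-to-noise for antibody binding to printed compounds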
- test.settings: higher = more signal
// no unit string in output, number only

| molecule | composite z-score |
| --- | --- |
| Cc1ccc(C(C)CC(O)C2C=CC3C(=O)NC(=O)C3N2Nc2ccccn2)o1 (centres undefined) | 0.0797 |

I have this molecule here, CCCC[C@@H]1C[C@H]1[C@@H](NC(=O)c1ccccc1)c1ccc(-c2ccccc2)cc1 , and I need its recorded composite z-score.
-0.0736

Consider next the molecule CC(C)(C)OC(=O)CC[C@@]1(C(N)=O)N=C(c2ccc(OCCCO)cc2)O[C@@H]1c1ccccc1N=[N+]=[N-] in the same way.
-0.0695

Consider next the molecule C=CCC(OC(C)=O)[C@@H]1[C@@H](N(Cc2ccc(-c3ccccc3)cc2)C(=O)c2ccc(C)cc2)c2cc(OCCCO)ccc2N1C(=O)c1ccc2ccccc2n1 (some centres undefined) in the same way.
0.173

====

- assay.target: Streptavidin (Streptomyces avidinii)
- protocol.description: compounds binding control protein streptavidin – biophysical, small-molecule microarray, 635/667 nm fluorescence, artefact control for SMM compound annotation, primary screen (AID 1147);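 further: signal reflects streptavidin binding to arrayed compounds as a control protein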
- test.settings: higher = more signal
Parameter composite z-score: see the listing below.
// no unit string in output, number only

I have this compound here, C=C(CCCC)C(=O)CC[C@@H](OC(=O)c1ccccc1-c1ccccc1C(=O)O)c1ccc(CO)o1 , and I need its recorded composite z-score.
-0.3

Consider next the compound O=C(NCCN1CCOCC1)[C@@H]1c2ccccc2C(=O)N(Cc2cc(F)cc(C(F)(F)F)c2)[C@H]1c1ccc(CO)cc1 in the same way.
-0.78

Consider next the compound COCCCNC(=O)[C@@]1(Cc2ccccc2I)c2ccccc2C(=O)N(Cc2ccccc2)[C@H]1c1ccc(CO)cc1 in the same way.
-1.38

Consider next the compound COc1cc2c(cc1O)C(c1ccc(CN3CCCC3)cc1)N(Cc1sc3ccccc3c1Cl)CC2 (configuration not stated) in the same way.
0.706

Consider next the compound CN1C(=O)C2C(C1=O)C1C=C(c3ccc(CO)cc3)C2C(C2CC2)N1Cc1sc2ccccc2c1Cl (configuration not stated) in the same way.
2.1

Consider next the compound Cc1ccc(S(=O)(=O)N2CC(C(=O)O)=CCC2c2ccccc2)cc1 (configuration not stated) in the same way.
-0.134

Consider next the compound CCN(CC)c1ccc(N2CC=CC34O[C@@H]5C=CCOC(=O)[C@@H]5[C@H]3C(=O)N(CCCCCO)[C@@H]4C2=O)cc1 (some centres not stated) in the same way.
-0.93

====

Parameter z-score: see the listing below.
- protocol.description: JC-1 mitochondrial signal, unstimulated myeloma cells – cell-based, JC-1 fluorescence, RPMI8226, 24 h, 100 nL compound, profiling panel (AID 1169); further: test concentration not given here
- test.settings: JC-1 mitochondrial potential fluorescence, higher = more signal
// no unit string in output, number only

| compound | z-score |
| --- | --- |
| CCCC[C@@H]1C[C@H]1[C@@H](NC(=O)c1ccco1)c1ccccc1 | -0.759 |
| C=C(C(=O)CC[C@@H](OC(=O)c1cccnc1)c1ccc(OCCO)cc1)C(C)C | -0.304 |

I have this compound here, COc1ccc(C#Cc2ccc3c(c2)[C@]2(C(=O)N3)[C@H](c3ccc(OCCO)cc3)N3[C@H](c4ccccc4)[C@H](c4ccccc4)OC(=O)[C@H]3[C@@H]2C(=O)Nc2nc3ccccc3s2)cc1 , and I need its recorded z-score.
-1.3

Consider next the compound Cc1ccc(N2C(=O)c3ccccc3[C@@H](C(=O)NCC(C)C)[C@@H]2c2ccc(CO)cc2)nc1 in the same way.
-0.482

Consider next the compound O=C1c2ccccc2[C@@]2(Cc3ccccc3N(Cc3ccccc3)C2=O)[C@H](c2ccc(CO)cc2)N1Cc1ccccc1C(F)(F)F in the same way.
-0.0385

Consider next the compound COC(=O)c1c(CC[C@@H](CO)NC(=O)Nc2ncn[nH]2)oc(C(=O)Cc2ccccc2)c1C(=O)OC in the same way.
0.0444

Consider next the compound COC(=O)[C@@]1(Cc2ccc(OC)cc2)[C@H]2c3cc(C(=O)N4CCCC4)n(C[C@H](O)CO)c3C[C@H]2CN1C(=O)c1ccccc1 in the same way.
0.933

Consider next the compound O=C1C2C=CC(C(O)C3CC=CCC3)N(n3cnnc3)C2C(=O)N1Cc1ccccc1 (stereo not given) in the same way.
0.46

Consider next the compound C=C(CCCC)C(=O)CC[C@H](OC(C)=O)c1ccc(CO)o1 in the same way.
0.0658

Consider next the compound CC(=O)N1Cc2ccccc2C[C@@]2(N=C(c3ccc(OCCCO)cc3)O[C@H]2c2ccccc2)C1=O in the same way.
-1.15

Consider next the compound Cc1ccc(S[C@]2(C(=O)NCCCN(C)C)CC(=O)N(Cc3ccccc3)[C@@H]2c2ccc(CO)cc2)cc1 in the same way.
-0.718

Consider next the compound COc1ccc(C#Cc2ccc3c(c2)[C@]2(C(=O)N3)[C@H](C(=O)N3CCc4cc(OC)c(OC)cc4C3)[C@H]3C(=O)O[C@H](c4ccccc4)[C@H](c4ccccc4)N3[C@@H]2c2ccc(OCCO)cc2)cc1 in the same way.
-0.513

Consider next the compound C=CC[C@]1(C(=O)O)N=C(c2ccc(OCCCO)cc2)O[C@H]1c1ccccc1CN=[N+]=[N-] in the same way.
-0.57

Consider next the compound CCOC(=O)C1=CC[C@@H](c2ccccc2)N(S(=O)(=O)c2ccc(C)cc2)[C@H]1c1ccc(C#N)cc1 in the same way.
0.124

Consider next the compound C=CCNC(=O)[C@@H]1[C@H]2C(=O)O[C@H](c3ccccc3)[C@H](c3ccccc3)N2[C@H](c2ccccc2OCCO)[C@@]12C(=O)N(C(=O)OCCOC)c1ccc(C#CCC(C(=O)OC)C(=O)OC)cc12 in the same way.
-0.802
